Where do these numbers come from? They come from the supplement of paper PMC7125110.

B1: glmS ribozyme (parent)
chain: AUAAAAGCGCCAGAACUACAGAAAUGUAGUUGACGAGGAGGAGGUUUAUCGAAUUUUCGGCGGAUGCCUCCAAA

variants of: B1; assay: self-cleavage kobs at 640 uM GlcN6P; higher = faster cleavage; RNA array; settings: with glucosamine-6-phosphate
Variants at the floor of the assay were thinned out.
The reader will find reported self-cleavage kobs at 640 uM GlcN6P values listed item by item below.

Take a look at these entries with their results.
>  <MUTATION LIST>
C8A C16U G38A

>  <self-cleavage kobs at 640 uM GlcN6P>
< 1e-05 s⁻¹

$$$$
>  <MUTATION LIST>
A33C G60U

>  <self-cleavage kobs at 640 uM GlcN6P>
< 1e-05 s⁻¹

$$$$
>  <MUTATION LIST>
G44U A53C C58U C71U

>  <self-cleavage kobs at 640 uM GlcN6P>
< 1e-05 s⁻¹

$$$$
>  <MUTATION LIST>
G7U C34A

>  <self-cleavage kobs at 640 uM GlcN6P>
< 1e-05 s⁻¹

$$$$
>  <MUTATION LIST>
C16U U47A

>  <self-cleavage kobs at 640 uM GlcN6P>
0.00515 s⁻¹

$$$$
>  <MUTATION LIST>
G7U G60A

>  <self-cleavage kobs at 640 uM GlcN6P>
< 1e-05 s⁻¹

$$$$
>  <MUTATION LIST>
A39G C67G

>  <self-cleavage kobs at 640 uM GlcN6P>
0.00174 s⁻¹

$$$$
>  <MUTATION LIST>
A6C U45C G51C U65G C70G

>  <self-cleavage kobs at 640 uM GlcN6P>
< 1e-05 s⁻¹

$$$$
>  <MUTATION LIST>
G7A C8A U65C

>  <self-cleavage kobs at 640 uM GlcN6P>
< 1e-05 s⁻¹

$$$$
>  <MUTATION LIST>
A14C U31C

>  <self-cleavage kobs at 640 uM GlcN6P>
0.000748 s⁻¹

$$$$

Entry C10U U31C A52U , self-cleavage kobs at 640 uM GlcN6P reported as < 1e-05 s⁻¹

Entry C11G G13C A48G , self-cleavage kobs at 640 uM GlcN6P reported as < 1e-05 s⁻¹

Entry U31G G63A , self-cleavage kobs at 640 uM GlcN6P reported as < 1e-05 s⁻¹

Entry A12C G44U , self-cleavage kobs at 640 uM GlcN6P reported as 9.03e-05 s⁻¹

Entry A39C G40C , self-cleavage kobs at 640 uM GlcN6P reported as 4.2e-05 s⁻¹

Entry A12U C50U C67G , self-cleavage kobs at 640 uM GlcN6P reported as 6.16e-05 s⁻¹

Entry C11A G43U , self-cleavage kobs at 640 uM GlcN6P reported as < 1e-05 s⁻¹

Entry G37U U65A G66C , self-cleavage kobs at 640 uM GlcN6P reported as < 1e-05 s⁻¹

Entry G35C G37U A64G C68U , self-cleavage kobs at 640 uM GlcN6P reported as < 1e-05 s⁻¹

Entry C16G G63U , self-cleavage kobs at 640 uM GlcN6P reported as < 1e-05 s⁻¹

Entry G7U A39C A42C , self-cleavage kobs at 640 uM GlcN6P reported as < 1e-05 s⁻¹

Entry C8U U65C , self-cleavage kobs at 640 uM GlcN6P reported as < 1e-05 s⁻¹

Entry U47A C67U , self-cleavage kobs at 640 uM GlcN6P reported as 0.003 s⁻¹
